Each item that follows carries a reported Solubility.
- assay.explanation: Solubility in PBS
- Assay type: physicochemical
A number alone suffices; assume µM.

compound	unit.of.measurement	Solubility
CC(=O)N1CCC[C@]12CC=CCCCC1(CCCC=CCCCCCC[C@@](C)(C(=O)N[C@@H](Cc3ccc4ccccc4c3)C(=O)N[C@@H](Cc3c[nH]c4ccccc34)C(=O)N[C@@H](CCC(N)=O)C(N)=O)NC(=O)[C@H](C(C)C)NC(=O)[C@H](Cc3ccccc3)NC(=O)[C@H](C)NC(=O)[C@H](C)NC(=O)[C@H](CC(=O)O)NC(=O)[C@H](CC(=O)O)NC1=O)NC(=O)[C@H](C)NC(=O)[C@H](CC(=O)O)NC2=O (some centres unmarked) [I-277]	µM	45
CC(=O)N1CCC[C@]12CC=CCCCC1(CCCC=CCCCCCC[C@@](C)(C(=O)N[C@@H](Cc3ccccc3)C(=O)N[C@@H](Cc3csc4ccccc34)C(=O)N[C@@H](CCC(N)=O)C(N)=O)NC(=O)[C@H](CC(N)=O)NC(=O)[C@H](Cc3ccccc3)NC(=O)[C@H](C)NC(=O)[C@H](C)NC(=O)[C@H](CCC(=O)O)NC(=O)[C@H](CC(=O)O)NC1=O)NC(=O)[C@H](C)NC(=O)[C@H](CC(=O)O)NC2=O (some centres unmarked) [I-425]	µM	45
CC(=O)N1CCC[C@]12CC=CCCCC1(CCCC=CCCCCCC[C@@](C)(C(=O)N[C@@H](Cc3ccccc3)C(=O)N[C@@H](Cc3csc4ccccc34)C(=O)N[C@H](C(N)=O)[C@@H](C)O)NC(=O)[C@H](CCC(N)=O)NC(=O)[C@H](Cc3ccccc3)NC(=O)[C@H](C)NC(=O)[C@H](C)NC(=O)[C@H](CCC(=O)O)NC(=O)[C@H](CC(=O)O)NC1=O)NC(=O)[C@H](C)NC(=O)[C@H](CC(=O)O)NC2=O (some centres unmarked) [I-508]	µM	50
CC(=O)N1CCC[C@]12CC=CCCCC1(CCCC=CCCCCCC[C@@](C)(C(=O)N[C@@H](Cc3ccccc3)C(=O)N[C@@H](Cc3csc4ccccc34)C(=O)N[C@@H](CCC(N)=O)C(N)=O)NC(=O)[C@H](CC(N)=O)NC(=O)[C@H](Cc3cscn3)NC(=O)[C@H](C)NC(=O)[C@H](C)NC(=O)[C@H](CCC(=O)O)NC(=O)[C@H](CC(=O)O)NC1=O)NC(=O)[C@H](C)NC(=O)[C@H](CC(=O)O)NC2=O (some centres unmarked) [I-524]	µM	50

// Solubility value for CC[C@H](C)[C@@H]1NC(=O)[C@H](CC(=O)O)NC(=O)[C@]2(CC=CCCCC3(CCCC=CCCCCCC[C@@](C)(C(=O)N[C@@H](Cc4ccccc4)C(=O)N[C@@H](Cc4csc5ccccc45)C(=O)N[C@H](C(N)=O)C(C)C)NC(=O)[C@H](CCC(N)=O)NC(=O)[C@H](Cc4ccccc4)NC(=O)[C@H](C)NC(=O)[C@H](C)NC(=O)[C@H](CCC(=O)O)NC(=O)[C@H](CC(=O)O)NC3=O)NC1=O)CCCN2C(C)=O (some centres unmarked) [I-645] : 40

---

- test.target: full-length beta-Catenin (Uniprot ID P35222) (Homo sapiens, UniProt P35222)
- Construct: 10 nM full-length beta-Catenin (Uniprot ID P35222)
- Sequence (P35222 1-781): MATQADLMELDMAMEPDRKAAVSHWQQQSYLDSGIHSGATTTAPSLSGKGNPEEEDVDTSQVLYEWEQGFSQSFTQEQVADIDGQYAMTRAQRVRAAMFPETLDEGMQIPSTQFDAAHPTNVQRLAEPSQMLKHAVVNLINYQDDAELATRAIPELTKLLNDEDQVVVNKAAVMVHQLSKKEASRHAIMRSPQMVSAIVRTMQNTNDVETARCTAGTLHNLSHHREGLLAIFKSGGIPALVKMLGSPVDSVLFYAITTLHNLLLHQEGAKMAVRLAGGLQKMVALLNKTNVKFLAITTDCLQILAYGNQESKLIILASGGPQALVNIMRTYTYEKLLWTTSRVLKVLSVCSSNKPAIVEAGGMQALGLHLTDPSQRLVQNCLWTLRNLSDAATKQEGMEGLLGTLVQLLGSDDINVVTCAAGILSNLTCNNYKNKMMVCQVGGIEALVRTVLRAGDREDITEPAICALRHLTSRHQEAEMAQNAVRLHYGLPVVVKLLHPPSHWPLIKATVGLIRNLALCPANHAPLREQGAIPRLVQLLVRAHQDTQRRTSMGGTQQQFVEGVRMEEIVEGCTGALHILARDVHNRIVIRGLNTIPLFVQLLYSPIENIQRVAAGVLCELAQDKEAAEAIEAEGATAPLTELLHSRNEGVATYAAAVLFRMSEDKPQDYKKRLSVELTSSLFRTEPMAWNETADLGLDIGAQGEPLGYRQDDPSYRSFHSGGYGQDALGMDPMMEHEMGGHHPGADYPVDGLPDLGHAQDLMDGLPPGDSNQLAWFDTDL
- assay.explanation: Fluorescence polarization IC50 (beta-catenin / 5FAM-TCF4 10-53 competition)
- Type: binding
- assay.conditions: fluorescence polarization; read-out: beta-Catenin FP IC50
Each item that follows carries a reported IC50.
A number alone suffices; assume nM.

compound	IC50 [nM]
CC(=O)N1CCC[C@]12CC=CCCCC1(CCCC=CCCCOC(=O)N3CC[C@@](C(=O)N[C@@H](Cc4ccsc4)C(=O)N[C@@H](Cc4csc5ccccc45)C(=O)N[C@@H](Cc4ccccc4)C(N)=O)(C3)NC(=O)[C@H]([C@@H](C)O)NC(=O)[C@H](Cc3ccccc3)NC(=O)[C@H](C)NC(=O)[C@H](C)NC(=O)[C@H]([C@@H](C)O)NC(=O)[C@H](CC(N)=O)NC1=O)NC(=O)[C@H](CC(C)(C)C)NC(=O)[C@H](CC(=O)O)NC2=O (stereo partly drawn) [I-2144]	2020
CC(=O)N1CCC[C@]12CC=CCCCC1(CCCC=CCCCOC(=O)N3CC[C@@](C(=O)N[C@@H](Cc4ccccc4Cl)C(=O)N[C@@H](Cc4csc5ccccc45)C(=O)N[C@H](CO)[C@@H](C)O)(C3)NC(=O)[C@H]([C@@H](C)O)NC(=O)[C@H](Cc3ccccc3)NC(=O)[C@H](C)NC(=O)[C@H](C)NC(=O)[C@H](CC(=O)O)NC(=O)[C@H](CC(=O)O)NC1=O)NC(=O)[C@H](CC(C)(C)C)NC(=O)[C@H](CC(=O)O)NC2=O (stereo partly drawn)	9

# next compound below
// IC50 (full-length beta-Catenin (Uniprot ID P35222) (Homo sapiens, UniProt P35222)) for CC(=O)N1CCC[C@]12CC=CCCCC1(CCCC=CCCCCCC[C@@](C)(C(=O)N[C@@H](Cc3ccccc3)C(=O)N[C@@H](Cc3csc4ccccc34)C(=O)N[C@@H](CCC(N)=O)C(N)=O)NC(=O)[C@H](CCO)NC(=O)[C@H](Cc3ccccc3)NC(=O)[C@H](C)NC(=O)[C@H](C)NC(=O)[C@H](CCC(=O)O)NC(=O)[C@H](CC(=O)O)NC1=O)NC(=O)[C@H](CCC(C)C)NC(=O)[C@H](CC(=O)O)NC2=O (stereo partly drawn) [I-1538] = 21
